Recorded values, source patent US20110190200A1.

# target_desc: glucagon receptor (human, UniProt P47871 26-477)
# Sequence (P47871 26-477): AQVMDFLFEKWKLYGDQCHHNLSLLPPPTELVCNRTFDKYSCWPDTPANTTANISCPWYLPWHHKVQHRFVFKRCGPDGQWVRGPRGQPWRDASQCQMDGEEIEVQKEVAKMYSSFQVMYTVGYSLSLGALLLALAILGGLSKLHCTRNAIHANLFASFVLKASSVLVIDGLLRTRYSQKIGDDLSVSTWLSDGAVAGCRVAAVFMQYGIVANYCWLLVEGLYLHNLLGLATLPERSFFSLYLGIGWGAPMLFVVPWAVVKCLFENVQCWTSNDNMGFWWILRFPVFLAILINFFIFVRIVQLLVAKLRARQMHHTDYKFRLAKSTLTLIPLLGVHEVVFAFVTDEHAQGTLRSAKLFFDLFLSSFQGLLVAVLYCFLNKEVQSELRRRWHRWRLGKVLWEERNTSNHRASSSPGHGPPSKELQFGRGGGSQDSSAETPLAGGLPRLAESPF
# assay_explanation: cell-based or functional assay
Square brackets hold non-standard residues; d marks the D form. Ends that are not written are not given here. * marks the point of attachment. Nle = CCCC[C@H](N)C(=O)O; Dab = NCC[C@H](N)C(=O)O; Aib = CC(C)(N)C(=O)O; Acm = CC(=O)NC*
Binary classification by % activity*, with 20% as an inclusive lower bound for YES; all other cases are NO.

binder | label_value
HSC(Acm)GTFTSDYSKYLDTRRAAEFVAWL[Nle]DE [Peptide J backbone, C(Acm) at position 3] | YES
HSQGTFTSDYSKYLD[Aib]RRAADFVAWLMDE [Peptide K backbone, Q at position 3] | NO
HSQGTFTSDYSKYLDTRRAAEFVAWL[Nle]DE [Peptide J backbone, Q at position 3] | YES
HS[Dab](Ac)GTFTSDYSKYLDTRRAAEFVAWL[Nle]DE [Peptide J backbone, Dab(Ac) at position 3] | NO
HS[Dab](Ac)GTFTSDYSKYLD[Aib]RRAADFVAWLMDE [Peptide K backbone, Dab(Ac) at position 3] | YES
